Items are presented alongside their recorded residual activity.
Biological target: CDK7 CCNH MNAT1 (human) (UniProt P50613+P51948+P51946)
Sequence (P50613 whole entry, looked up): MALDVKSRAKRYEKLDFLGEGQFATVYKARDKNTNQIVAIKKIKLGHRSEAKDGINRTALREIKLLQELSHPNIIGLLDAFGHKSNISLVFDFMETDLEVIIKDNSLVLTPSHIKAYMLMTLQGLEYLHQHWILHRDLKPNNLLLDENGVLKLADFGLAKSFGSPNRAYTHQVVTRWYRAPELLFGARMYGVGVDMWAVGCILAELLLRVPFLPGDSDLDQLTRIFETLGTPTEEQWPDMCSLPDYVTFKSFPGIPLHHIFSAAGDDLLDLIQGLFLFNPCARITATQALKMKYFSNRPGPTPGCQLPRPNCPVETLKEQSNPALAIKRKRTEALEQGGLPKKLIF
Sequence (P51946 whole entry, looked up): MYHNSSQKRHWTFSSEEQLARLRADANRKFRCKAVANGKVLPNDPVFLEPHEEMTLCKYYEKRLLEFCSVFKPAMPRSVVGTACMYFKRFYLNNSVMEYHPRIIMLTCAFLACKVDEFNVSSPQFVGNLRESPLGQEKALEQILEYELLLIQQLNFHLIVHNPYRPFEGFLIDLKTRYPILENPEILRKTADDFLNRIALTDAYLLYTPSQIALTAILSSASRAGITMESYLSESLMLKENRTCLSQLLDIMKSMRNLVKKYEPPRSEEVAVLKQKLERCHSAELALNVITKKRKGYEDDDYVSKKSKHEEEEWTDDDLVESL
Sequence (P51948 whole entry, looked up): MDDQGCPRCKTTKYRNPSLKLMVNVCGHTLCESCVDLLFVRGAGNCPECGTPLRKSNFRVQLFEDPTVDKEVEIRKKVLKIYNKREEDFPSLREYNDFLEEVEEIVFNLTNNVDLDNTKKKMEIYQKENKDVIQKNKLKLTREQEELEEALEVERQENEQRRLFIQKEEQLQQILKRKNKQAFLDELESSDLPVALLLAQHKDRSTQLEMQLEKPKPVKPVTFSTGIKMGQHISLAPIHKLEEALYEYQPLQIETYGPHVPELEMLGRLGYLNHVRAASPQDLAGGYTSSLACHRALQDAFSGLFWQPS
Assay: radiometric filter-binding kinase assay, Kinase HotSpot
Conditions: compound 0.5 µM; ATP 10 µM

- smilesString: "CCN(CC)C(=O)c1ccc(Nc2nc(OCC3CCCCC3)c3nc[nH]c3n2)cc1"
  tgt: "CDK7 CCNH MNAT1 (human) (UniProt P50613+P51948+P51946)"
  unitsOfMeasure: "%"
  residual activity: 87.6
- smilesString: "O=C1NC(=O)C(c2cn(CCCn3ccnc3)c3ccccc23)=C1Nc1ccccc1"
  tgt: "CDK7 CCNH MNAT1 (human) (UniProt P50613+P51948+P51946)"
  unitsOfMeasure: "%"
  residual activity: 96.3
- smilesString: "O=S(=O)(c1cccc2cnccc12)N1CCCNCC1"
  tgt: "CDK7 CCNH MNAT1 (human) (UniProt P50613+P51948+P51946)"
  unitsOfMeasure: "%"
  residual activity: 95.5
- smilesString: "COc1cc2ncnc(Nc3cccc(Cl)c3)c2cc1OC"
  tgt: "CDK7 CCNH MNAT1 (human) (UniProt P50613+P51948+P51946)"
  unitsOfMeasure: "%"
  residual activity: 99.9
- smilesString: "O=C1Nc2ccc(Cl)cc2/C1=C/c1cc(Cl)c(O)c(Cl)c1"
  tgt: "CDK7 CCNH MNAT1 (human) (UniProt P50613+P51948+P51946)"
  unitsOfMeasure: "%"
  residual activity: 96.7
- smilesString: "CNc1cc2c(Nc3cccc(Br)c3)ncnc2cn1"
  tgt: "CDK7 CCNH MNAT1 (human) (UniProt P50613+P51948+P51946)"
  unitsOfMeasure: "%"
  residual activity: 102

* * *

Molecular target: SRPK3 (human) (UniProt Q9UPE1)
Sequence (Q9UPE1 whole entry, looked up): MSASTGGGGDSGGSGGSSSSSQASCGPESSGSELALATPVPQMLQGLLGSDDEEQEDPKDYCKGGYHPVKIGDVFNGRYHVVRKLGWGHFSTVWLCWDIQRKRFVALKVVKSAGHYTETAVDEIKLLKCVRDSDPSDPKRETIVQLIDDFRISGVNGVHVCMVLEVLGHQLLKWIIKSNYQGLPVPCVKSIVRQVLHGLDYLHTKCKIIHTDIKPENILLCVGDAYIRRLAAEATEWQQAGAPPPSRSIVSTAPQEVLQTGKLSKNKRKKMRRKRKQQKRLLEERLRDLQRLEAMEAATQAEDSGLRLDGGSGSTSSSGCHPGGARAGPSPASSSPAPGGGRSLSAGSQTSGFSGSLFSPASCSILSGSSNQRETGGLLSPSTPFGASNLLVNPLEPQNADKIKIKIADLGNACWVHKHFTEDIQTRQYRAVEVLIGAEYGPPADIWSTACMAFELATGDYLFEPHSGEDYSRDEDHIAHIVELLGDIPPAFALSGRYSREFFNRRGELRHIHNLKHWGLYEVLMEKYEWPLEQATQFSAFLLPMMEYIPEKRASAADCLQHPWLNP
Assay: radiometric filter-binding kinase assay, Kinase HotSpot
Conditions: compound 0.5 µM; ATP 10 µM

- smilesString: "CC(=O)c1ccc(N2CCOCC2)cc1O"
  residual activity: "104%"
- smilesString: "CCN(CC)C(=O)c1ccc(Nc2nc(OCC3CCCCC3)c3nc[nH]c3n2)cc1"
  residual activity: "68.1%"
- smilesString: "COc1ccc2c(c[n+](C)c3c4cc5c(cc4ccc23)OCO5)c1OC"
  residual activity: "96.1%"
- smilesString: "CNC(=O)c1cc(Oc2ccc(NC(=O)Nc3ccc(Cl)c(C(F)(F)F)c3)cc2)ccn1"
  residual activity: "88.4%"
- smilesString: "CNc1cc2c(Nc3cccc(Br)c3)ncnc2cn1"
  residual activity: "97.1%"
- smilesString: "Cc1ccc(NC2=CC(=O)c3sc(C)nc3C2=O)cc1"
  residual activity: "98.2%"

* * *

Items are presented alongside their recorded residual activity.
Target: DSTYK (human)
Test: radiometric filter-binding kinase assay, Kinase HotSpot
Conditions: compound 0.5 µM; ATP 10 µM
measure: residual activity (%)

- smilesString: "COc1ccc(COc2ccc(Cc3cnc(N)nc3N)cc2OC)cc1"
  readoutNumber: 95
- smilesString: "Nc1cccc(-c2cc3c(Oc4cccc(O)c4)ncnc3[nH]2)c1"
  readoutNumber: 83.4
- smilesString: "Nc1ncnc2c1c(-c1ccc(Oc3ccccc3)cc1)cn2C1CCCC1"
  readoutNumber: 100
- smilesString: "N#C/C(=C(/N)Sc1ccc(N)cc1)c1ccccc1C(F)(F)F"
  readoutNumber: 113
- smilesString: "Cc1ccc(NC2=CC(=O)c3sc(C)nc3C2=O)cc1"
  readoutNumber: 76.1
- smilesString: "O=S(=O)(c1cccc2cnccc12)N1CCCNCC1"
  readoutNumber: 90.4
